Reference for the values: patent US20030082194A1

- Test system: mouse B6 class I antigens (D^b or K^b molecules on RMA-S cells)
- Measurement Notes: Peptide binding to C57Bl/6 murine MHC on RMA-S cells, flow cytometry (Tables 48, 49)
- Assay type: cell-based
- Condition Parameters: peptide 25 μg/ml, percentage of increase of Db or Kb molecules (mean fluorescent intensity) vs medium alone, Table 48
- Protocol: In brief, RMA-S cells were cultured for 7 hrs at 26° C. in complete medium supplemented with 1% FCS. […] Labeled cells were washed twice, resuspended and fixed in 500 μl of PBS with 1% paraformaldehyde and analyzed for fluorescence intensity in a flow cytometer (Becton-Dickinson FACSCalibur®). […]
Observable: Binding Affinity to Mouse MHC Class I (%)
Give the value, in units of %, as a plain number.

{"columns": ["Substance", "Result Value"],
 "data": [
  ["p228-236 (QMTSQLECM)", 1.2],
  ["CMTWNQMNL (listed as Homo sapiens, listed as Mus musculus) [SEQ ID NO:49]", 33.6],
  ["p221-229 (YSSDNLYQM)", 0.8]
]}

What value of Binding Affinity to Mouse MHC Class I has been recorded for this entry: SCLESQPAI (listed as Homo sapiens) [SEQ ID NO:198]
52

Same for ALLPAVPSL (listed as Homo sapiens) [SEQ ID NO:34]
2.2

// query: NLYQMTSQL (listed as Homo sapiens) [SEQ ID NO:147]
5.8

Also, p329-337 (GCNKRYFKL) please.
1.2
